Each entry below carries its reported melting point.

As a guide, the following entries are already answered.
INSERT INTO measurements (structure, endpoint_value) VALUES
  ('COc1ccc(/C=C2\SC(=O)N(Cc3nnc(COc4cccc(Cl)c4)o3)C2=O)cc1', '142 to 143 °C'),
  ('COc1ccc(/C=C2\SC(=O)N(Cc3nnc(COc4ccc5ccccc5c4)o3)C2=O)cc1', '210 to 211 °C'),
  ('COc1ccc(/C=C2\SC(=O)N(Cc3nnc(COc4cccc5cccnc45)o3)C2=O)cc1', '161 to 162 °C'),
  ('COc1ccc(/C=C2\SC(=O)N(Cc3nnc(COc4ccccc4)o3)C2=O)cc1', '152 to 153 °C'),
  ('COc1ccc(/C=C2\SC(=O)N(Cc3nnc(-c4ccc(C)cc4)o3)C2=O)cc1', '197 to 198 °C');

Note down melting point recorded for "COc1ccc(/C=C2\SC(=O)N(Cc3nnc(COc4cccc(Cl)c4Cl)o3)C2=O)cc1"
209 to 210 °C

Please give the documented melting point of "COc1ccc(/C=C2\SC(=O)N(Cc3nnc(-c4ccccc4Cl)o3)C2=O)cc1"
276 to 277 °C

Fill in melting point for record "COc1ccc(/C=C2\SC(=O)N(Cc3nnc(COc4cccc5ccccc45)o3)C2=O)cc1"
220 to 221 °C

----------
Listed below: IC50 values for each entry.
# experimental target: thymidylate synthase (TS) (Homo sapiens, UniProt P04818)
# Sequence (P04818 whole entry): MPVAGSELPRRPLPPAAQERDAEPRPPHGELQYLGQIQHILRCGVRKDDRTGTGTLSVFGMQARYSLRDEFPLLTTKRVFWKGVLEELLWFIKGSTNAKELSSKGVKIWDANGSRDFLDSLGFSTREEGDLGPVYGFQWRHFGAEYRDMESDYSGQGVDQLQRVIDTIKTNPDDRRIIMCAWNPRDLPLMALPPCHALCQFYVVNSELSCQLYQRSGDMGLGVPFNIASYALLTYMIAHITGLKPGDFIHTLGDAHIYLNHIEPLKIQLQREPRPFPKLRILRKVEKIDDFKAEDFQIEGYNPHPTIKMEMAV
# procedure text: In vitro thymidylate synthase assay (spectrophotometric, 340 nm)
# Format: biochemical
# measurement conditions: 30 °C, pH 7.4; read-out: TS inhibition IC50
Report the value in µM with no unit label.

Example results:
INSERT INTO measurements (structure, endpoint_value) VALUES
  ('COc1ccc(/C=C2\SC(=O)N(Cc3nnc(-c4cccc(C)c4)o3)C2=O)cc1', 7.9),
  ('COc1ccc(/C=C2\SC(=O)N(Cc3nnc(-c4ccccc4Cl)o3)C2=O)cc1', 1.67);

Give the value of IC50 reported for the following: "COc1ccc(/C=C2\SC(=O)N(Cc3nnc(-c4ccc(Br)cc4)o3)C2=O)cc1"
2.21

Given the compound "COc1ccc(/C=C2\SC(=O)N(Cc3nnc(-c4cccc([N+](=O)[O-])c4)o3)C2=O)cc1" , write its reported IC50.
9.4

----------
# experimental target: thymidylate synthase (TS) (Homo sapiens)
# procedure text: In vitro thymidylate synthase assay (spectrophotometric, 340 nm)
# Format: biochemical
recorded endpoint: pIC50
Quick note: pIC50 means taking -log10 of the concentration in moles per liter.

Given Nc1nc2[nH]cc(CCc3ccc(C(=O)N[C@@H](CCC(=O)O)C(=O)O)cc3)c2c(=O)[nH]1 [PTX, Pemetrexed, reference compound] , respond with its pIC50.
5.09
